Ref: the supplement of paper PMC10567573

B1: UFD1L (parent)
chain: EAGGRFVAFSGEGQSLRKKGRKP

variants of: B1; assay: protein stability index of a GFP-peptide fusion (GPS, HEK-293T) (PSI 1-6); higher = more stable; details: c terminus: native;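 also: lentivirally expressed fusions sorted by FACS into six bins by GFP to DsRed ratio, PSI derived from sequencing read proportions per bin multiplied by bin number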
Kindly return True if reported protein stability index is no lower than 2; return False if it is lower.

# count of solved cases: 3
{"Variant label": "S10Q", "Assigned class": "True"}
{"Variant label": "G20Q", "Assigned class": "True"}
{"Variant label": "S10P", "Assigned class": "True"}

Problem: Tell me whether protein stability index is at least 2 here: `R5M`
Result: False

Problem: Tell me whether protein stability index is at least 2 here: `L16M`
Result: False

Problem: Tell me whether protein stability index is at least 2 here: `S15H`
Result: True

Problem: Tell me whether protein stability index is at least 2 here: `K19R`
Result: False

Problem: Tell me whether protein stability index is at least 2 here: `G4Q`
Result: False

Problem: Tell me whether protein stability index is at least 2 here: `A2S`
Result: False

Problem: Tell me whether protein stability index is at least 2 here: `S15A`
Result: True
